These measurements were taken from patent US4971967A.

# System: Salmonella typhimurium IID 971
# Measurement notes: Antibacterial activity (MIC), Salmonella typhimurium IID 971
# Assay type: cell-based
# Cond: Salmonella enterica; Salmonella typhimurium IID 971, Gram -; read-out: Minimum inhibitory concentration (MIC)
Structures can show the parent of a compound that is named as a salt.
Known MIC of a selection of molecules
Number first, unit second: that is the form wanted.

[[record]]
molecule = "CCNCC1CCN(c2c(F)cc3c(=O)c(C(=O)O)c4scc5n4c3c2N(C)C5)C1 (stereo not shown) [Compound (M), hydrochloride]"
target_under_test = "Salmonella typhimurium IID 971"
observed_result = "0.1 µg/mL"

[[record]]
molecule = "CCN1CCN(c2c(F)cc3c(=O)c(C(=O)O)c4scc5n4c3c2N(C)C5)CC1 [Compound (K), hydrochloride]"
target_under_test = "Salmonella typhimurium IID 971"
observed_result = "0.05 µg/mL"

[[record]]
molecule = "CN1CCN(c2c(F)cc3c(=O)c(C(=O)O)c4scc5n4c3c2N(C)C5)CC1"
target_under_test = "Salmonella typhimurium IID 971"
observed_result = "0.05 µg/mL"

[[record]]
molecule = "CNCC1CCN(c2c(F)cc3c(=O)c(C(=O)O)c4scc5n4c3c2N(C)C5)C1 (stereo not shown) [Compound (N), hydrochloride]"
target_under_test = "Salmonella typhimurium IID 971"
observed_result = "0.1 µg/mL"

[[record]]
molecule = "CN1CCN(c2c(F)cc3c(=O)c(C(=O)O)c4scc5n4c3c2OC5)CC1 [Compound (Y), hydrochloride, reference compound]"
target_under_test = "Salmonella typhimurium IID 971"
observed_result = "0.05 µg/mL"


# lookup: MIC of `CN1Cc2csc3c(C(=O)O)c(=O)c4cc(F)c(N5CCNCC5)c1c4n23`
0.05 µg/mL

# lookup: MIC of CC1COc2c(N3CCN(C)CC3)c(F)cc3c(=O)c(C(=O)O)cn1c23 (stereo not shown) [Compound (X), reference compound]
0.05 µg/mL
